All values here come from ChEMBL document CHEMBL1828590.

# System: COLO 205
# PROTOCOL DETAILS: Antiproliferative activity against human COLO205 cells after 96 hrs by celltiter 96 assay
# Assay type: functional, cell-based
# RUN PARAMETERS: COLO 205, 96 h
PROPERTY MEASURED: IC50 (nM)
One number for each entry, in nM.

// worked examples, IC50 included
1) CC/C=C\CCc1nc2cc(/C=C/C(=O)NO)ccc2n1CCNCC: 310
2) CC/C=C\CCc1nc2cc(/C=C/C(=O)NO)ccc2n1CC(C)(C)CN(C)C: 620
3) CCCCc1nc2cc(/C=C/C(=O)NO)ccc2n1CCNC(C)C: 470
4) CCCCCCc1nc2cc(/C=C/C(=O)NO)ccc2n1CCN(C)C: 330
5) CCCCc1nc2cc(/C=C/C(=O)NO)ccc2n1CC(C)(C)CN(C)C: 2230

For every item below, please supply its IC50.
1. CCCCc1nc2cc(/C=C/C(=O)NO)ccc2n1C1CCNCC1
2. CN(C)CC(C)(C)Cn1c(C2CCCCC2)nc2cc(/C=C/C(=O)NO)ccc21
3. CN(C)CC(C)(C)Cn1c(CC(C)(C)C)nc2cc(/C=C/C(=O)NO)ccc21
4. O=C(/C=C/c1cccc(S(=O)(=O)Nc2ccccc2)c1)NO
5. CCCCCCc1nc2cc(/C=C/C(=O)NO)ccc2n1CCNCC

A:
7000
2450
570
700
190

----------
# PROTOCOL DETAILS: Apparent permeability from apical to basolateral side of human Caco2 cells
# Assay type: ADME, cell-based
# RUN PARAMETERS: Caco-2
PROPERTY MEASURED: Papp A→B (×10⁻⁶ cm/s)
One number for each entry, in ×10⁻⁶ cm/s.

1) CCCCCCc1nc2cc(/C=C/C(=O)NO)ccc2n1CCNCC.Cl.Cl: 0.97
2) O=C(/C=C/c1ccc2c(c1)nc(CCc1ccccc1)n2CCN1CCCC1)NO: 3.01
3) Cl.O=C(/C=C/c1ccc2c(c1)nc(CCc1ccccc1)n2CCN1CCCC1)NO: 3.01
4) CCCCc1nc2cc(/C=C/C(=O)NO)ccc2n1CCN(CC)CC.Cl.Cl: 7.04
5) CCCCCCc1nc2cc(/C=C/C(=O)NO)ccc2n1CCN(C)C.Cl.Cl: 9.59

Lookup result for `CN(C)CC(C)(C)Cn1c(CC(C)(C)C)nc2cc(/C=C/C(=O)NO)ccc21.Cl.Cl` ; measured Papp A→B: 19.4

----------
# PROTOCOL DETAILS: Plasma protein binding in human at 1000 ng/mL
# Type: ADME, cell-free
# RUN PARAMETERS: read-out: PPB (converted)
PROPERTY MEASURED: fraction unbound at 1000 ng/mL
Numbers only.

Lookup result for `CCCCc1nc2cc(/C=C/C(=O)NO)ccc2n1CCN(CC)CC.Cl.Cl` ; measured fraction unbound at 1000 ng/mL: 0.082

----------
# TARGET DESC: UniProtKB P56524
# Sequence (P56524 whole entry): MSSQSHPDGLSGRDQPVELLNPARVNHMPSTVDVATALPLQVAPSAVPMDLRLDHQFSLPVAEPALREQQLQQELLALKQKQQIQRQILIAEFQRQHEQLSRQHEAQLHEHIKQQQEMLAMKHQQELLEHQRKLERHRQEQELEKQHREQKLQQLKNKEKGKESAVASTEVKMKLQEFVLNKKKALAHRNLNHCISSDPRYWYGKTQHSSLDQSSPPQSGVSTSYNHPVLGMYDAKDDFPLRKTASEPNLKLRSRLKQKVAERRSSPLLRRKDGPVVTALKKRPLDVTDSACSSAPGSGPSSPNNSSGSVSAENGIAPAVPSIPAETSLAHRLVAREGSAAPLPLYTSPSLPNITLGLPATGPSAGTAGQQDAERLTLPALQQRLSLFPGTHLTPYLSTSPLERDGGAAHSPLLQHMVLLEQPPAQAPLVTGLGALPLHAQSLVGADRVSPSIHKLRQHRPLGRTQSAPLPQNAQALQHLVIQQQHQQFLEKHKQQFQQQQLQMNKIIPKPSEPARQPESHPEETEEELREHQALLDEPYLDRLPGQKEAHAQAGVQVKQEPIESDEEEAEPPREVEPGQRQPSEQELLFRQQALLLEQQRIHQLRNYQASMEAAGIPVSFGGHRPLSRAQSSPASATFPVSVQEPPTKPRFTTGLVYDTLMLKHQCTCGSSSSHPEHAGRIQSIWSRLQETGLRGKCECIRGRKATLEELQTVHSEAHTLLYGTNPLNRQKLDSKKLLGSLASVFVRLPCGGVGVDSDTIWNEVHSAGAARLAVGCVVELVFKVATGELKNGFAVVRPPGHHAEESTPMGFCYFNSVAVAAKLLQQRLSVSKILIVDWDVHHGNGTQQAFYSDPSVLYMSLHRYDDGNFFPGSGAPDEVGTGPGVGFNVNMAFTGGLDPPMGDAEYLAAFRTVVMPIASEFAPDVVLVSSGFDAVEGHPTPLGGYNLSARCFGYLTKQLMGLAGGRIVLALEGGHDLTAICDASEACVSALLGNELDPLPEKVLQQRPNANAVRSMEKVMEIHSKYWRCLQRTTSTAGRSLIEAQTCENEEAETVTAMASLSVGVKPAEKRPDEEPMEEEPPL
What pKi was measured for each of the following?
Answers are plain numbers, as −log10 of the molar value.

// worked examples, pKi included
1) CCCCc1nc2cc(/C=C/C(=O)NO)ccc2n1CCN(CC)CC.Cl.Cl: 7.80
2) O=C(/C=C/c1ccc2c(c1)nc(CCc1ccccc1)n2CCN1CCCCC1)NO: 8.06
3) CCCCCc1nc2cc(/C=C/C(=O)NO)ccc2n1CCNC(C)C: 8.44
4) CCCCc1nc2cc(/C=C/C(=O)NO)ccc2n1CCNC(C)C: 7.96

Lookup result for `CN(C)CC(C)(C)Cn1c(CCc2ccccc2)nc2cc(/C=C/C(=O)NO)ccc21` ; measured pKi: 8.00

----------
# PROTOCOL DETAILS: Terminal half life in Wistar rat at 2 mg/kg, iv
# Assay type: ADME, organism-based
# Design: dose 2 mg/kg, route intravenous
# RUN PARAMETERS: in vivo, read-out: beta t1/2 (converted)
PROPERTY MEASURED: half-life (min)
Give bare numbers, in min.

Lookup result for `CCCCc1nc2cc(/C=C/C(=O)NO)ccc2n1CCN(CC)CC.Cl.Cl` ; measured half-life: 53.4

----------
# PROTOCOL DETAILS: Solubility of the compound in 0.9% NaCl
# Assay type: physicochemical
PROPERTY MEASURED: solubility

Lookup result for `CCCCc1nc2cc(/C=C/C(=O)NO)ccc2n1CCN(CC)CC.Cl.Cl` ; measured solubility: > 50 mg/mL

----------
# PROTOCOL DETAILS: AUC (0 to infinity) in nude BALB/c mouse at 10 mg/kg, iv
# Type: ADME, organism-based
# Set-up: time infinity, dose 10 mg/kg, route intravenous
# RUN PARAMETERS: plasma
PROPERTY MEASURED: AUC(0-inf) (µM·h)
Answers are plain numbers, in µM·h.

Lookup result for `CCCCc1nc2cc(/C=C/C(=O)NO)ccc2n1CCN(CC)CC.Cl.Cl` ; measured AUC(0-inf): 2.52

----------
Protein target, amino acids: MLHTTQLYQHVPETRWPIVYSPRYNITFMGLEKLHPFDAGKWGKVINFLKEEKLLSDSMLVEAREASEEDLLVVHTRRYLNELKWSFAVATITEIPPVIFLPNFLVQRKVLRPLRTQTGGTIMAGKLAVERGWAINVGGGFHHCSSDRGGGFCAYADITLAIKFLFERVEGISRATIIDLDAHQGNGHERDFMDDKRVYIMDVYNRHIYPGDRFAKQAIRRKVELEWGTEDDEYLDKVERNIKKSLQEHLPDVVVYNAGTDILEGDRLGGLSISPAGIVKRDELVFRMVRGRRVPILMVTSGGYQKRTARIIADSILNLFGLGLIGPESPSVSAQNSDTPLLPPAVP
PROPERTY MEASURED: Ki (nM)
Give bare numbers, in nM.

1. CCCCCCc1nc2cc(/C=C/C(=O)NO)ccc2n1CCN(C)C: 11

For every item below, please supply its Ki.
1. CN(C)CC(C)(C)Cn1c(CCc2ccccc2)nc2cc(/C=C/C(=O)NO)ccc21
2. CCCCCCc1nc2cc(/C=C/C(=O)NO)ccc2n1CCNCC
3. CC/C=C\CCc1nc2cc(/C=C/C(=O)NO)ccc2n1CCNCC
4. CCCCc1nc2cc(/C=C/C(=O)NO)ccc2n1CCNC(C)C
5. CCCCc1nc2cc(/C=C/C(=O)NO)ccc2n1CCN(CC)CC.Cl.Cl

A:
1. 16
2. 13
3. 8.8
4. 18
5. 24

For every item below, please supply its Ki.
1. CN(C)CC(C)(C)Cn1c(CC(C)(C)C)nc2cc(/C=C/C(=O)NO)ccc21
2. O=C(/C=C/c1ccc2c(c1)nc(CCc1ccccc1)n2CCN1CCCCC1)NO

A:
14
14

----------
# PROTOCOL DETAILS: 1-Octanol-sodium phosphate buffer distribution coefficient, log D of the compound at pH 7.4
# Assay type: physicochemical
# RUN PARAMETERS: 1-octanol/sodium phosphate buffer, read-out: logD
What logD was measured for each of the following?
Give bare numbers.

1. CN(C)CC(C)(C)Cn1c(CC(C)(C)C)nc2cc(/C=C/C(=O)NO)ccc21.Cl.Cl: 2.41

For every item below, please supply its logD.
1. Cl.O=C(/C=C/c1ccc2c(c1)nc(CCc1ccccc1)n2CCN1CCCC1)NO
2. CCCCc1nc2cc(/C=C/C(=O)NO)ccc2n1CCN(CC)CC.Cl.Cl

A:
2.1
2.07

----------
# PROTOCOL DETAILS: Cmax in Beagle dog at 10 mg/kg, po
# Type: ADME, organism-based, Canis lupus familiaris
# Set-up: dose 10 mg/kg, route oral
# RUN PARAMETERS: in vivo
PROPERTY MEASURED: Cmax

Lookup result for `CCCCc1nc2cc(/C=C/C(=O)NO)ccc2n1CCN(CC)CC.Cl.Cl` ; measured Cmax: 3.56 µM

----------
# PROTOCOL DETAILS: AUC (0 to infinity) in nude BALB/c mouse at 50 mg/kg, po
# Format: ADME, organism-based
# Design: time infinity, dose 50 mg/kg, route oral
# RUN PARAMETERS: plasma
PROPERTY MEASURED: AUC(0-inf) (µM·h)
One number for each entry, in µM·h.

Lookup result for `CCCCc1nc2cc(/C=C/C(=O)NO)ccc2n1CCN(CC)CC.Cl.Cl` ; measured AUC(0-inf): 4.27

----------
# PROTOCOL DETAILS: Terminal half life in Beagle dog at 10 mg/kg, po
# Format: ADME, organism-based, Canis lupus familiaris
# Parameters: dose 10 mg/kg, route oral
# RUN PARAMETERS: in vivo, read-out: beta t1/2 (converted)
PROPERTY MEASURED: half-life (h)
Answers are plain numbers, in h.

Lookup result for `CCCCc1nc2cc(/C=C/C(=O)NO)ccc2n1CCN(CC)CC.Cl.Cl` ; measured half-life: 4.12

----------
What MTD at 504 h was measured for each of the following?
# PROTOCOL DETAILS: Toxicity in po dosed athymic nu/nu Harlan mouse with xenografted human HCT116 cells assessed as maximum tolerated administered qd for 21 days
# Format: organism-based, HCT-116
# RUN PARAMETERS: in vivo
Express your answer as a number followed by its unit.

// worked examples, MTD at 504 h included
1) CCCCc1nc2cc(/C=C/C(=O)NO)ccc2n1CCN(CC)CC.Cl.Cl: 50 mg/kg
2) CCCCc1nc2cc(/C=C/C(=O)NO)ccc2n1CCNC(C)C: 200 mg/kg
3) CCCCCCc1nc2cc(/C=C/C(=O)NO)ccc2n1CCNCC: 200 mg/kg

Note: attention shifts to another entry.
Lookup result for `CCCCCCc1nc2cc(/C=C/C(=O)NO)ccc2n1CCN(C)C` ; measured MTD at 504 h: 200 mg/kg
